# Measured Target: human TRPM8 (Homo sapiens, UniProt Q7Z2W7)
# Construct: expressed in transfected cells; host or cells: Chinese hamster ovary (CHO) cells, T-REx tetracycline-inducible expression system (Invitrogen); co-transfected with pcDNA3.1 aequorin
# Sequence (Q7Z2W7 whole entry): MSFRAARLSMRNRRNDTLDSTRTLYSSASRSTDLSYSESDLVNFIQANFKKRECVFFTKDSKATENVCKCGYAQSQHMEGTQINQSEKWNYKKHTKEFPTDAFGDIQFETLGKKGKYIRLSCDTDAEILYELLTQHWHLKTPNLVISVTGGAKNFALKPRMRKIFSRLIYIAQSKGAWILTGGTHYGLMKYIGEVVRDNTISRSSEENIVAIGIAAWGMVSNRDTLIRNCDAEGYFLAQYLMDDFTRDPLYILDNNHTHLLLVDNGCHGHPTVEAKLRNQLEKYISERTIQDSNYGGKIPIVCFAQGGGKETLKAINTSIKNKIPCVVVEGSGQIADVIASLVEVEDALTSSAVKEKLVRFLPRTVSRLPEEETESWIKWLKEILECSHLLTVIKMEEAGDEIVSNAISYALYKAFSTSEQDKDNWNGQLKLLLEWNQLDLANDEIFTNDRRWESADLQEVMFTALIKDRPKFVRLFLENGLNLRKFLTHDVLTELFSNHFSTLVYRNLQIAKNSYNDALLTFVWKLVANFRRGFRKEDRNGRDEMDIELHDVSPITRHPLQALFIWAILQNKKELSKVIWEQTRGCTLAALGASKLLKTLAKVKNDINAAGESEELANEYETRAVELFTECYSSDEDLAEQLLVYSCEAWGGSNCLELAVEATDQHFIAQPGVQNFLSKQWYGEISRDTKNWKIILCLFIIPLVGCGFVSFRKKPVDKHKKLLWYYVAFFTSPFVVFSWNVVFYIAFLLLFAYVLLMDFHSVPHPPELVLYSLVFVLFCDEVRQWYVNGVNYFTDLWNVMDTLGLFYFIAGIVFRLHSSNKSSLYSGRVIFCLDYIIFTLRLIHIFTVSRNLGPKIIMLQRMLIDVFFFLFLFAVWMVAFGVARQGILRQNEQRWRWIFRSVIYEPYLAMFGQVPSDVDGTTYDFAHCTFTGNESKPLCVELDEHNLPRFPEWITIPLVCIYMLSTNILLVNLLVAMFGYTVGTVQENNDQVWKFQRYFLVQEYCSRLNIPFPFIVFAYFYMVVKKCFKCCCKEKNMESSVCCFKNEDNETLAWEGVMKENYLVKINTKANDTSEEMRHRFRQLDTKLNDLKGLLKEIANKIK
# Method: Luminescence readout assay for measuring intracellular calcium (aequorin, CHO cells expressing human TRPM8; icilin, L-menthol or cold activation)
# Type: cell-based
# Details: CHO cells expressing human TRPM8, icilin activation (1 μM), aequorin luminescence; read-out: hTRPM8 IC50
pIC50: −log10 of the molar value. Counter-ions that a name gives are not always drawn.
// pIC50 lookup, one value per entry
Readout: pIC50

[[record]]
compound = "O=C(Nc1ccncn1)N[C@]1(c2ccc(OC(F)(F)F)c(F)c2)CCOc2cccnc21"
readout = "pIC50"
experimental_result = 7.24

[[record]]
compound = "O=C(Nc1ccc(F)nc1)N[C@]1(c2ccc(OC(F)(F)F)c(F)c2)CCOc2cccnc21 [Example 66, 2,2,2-trifluoroacetate]"
readout = "pIC50"
experimental_result = 7.77

[[record]]
compound = "O=C(N[C@]1(c2ccc(-c3ccccc3)cc2)CCOc2cccnc21)c1ccc(F)cc1"
readout = "pIC50"
experimental_result = 7.28

[[record]]
compound = "O=C(Nc1ccc(Br)nc1)N[C@]1(c2ccc(OC(F)(F)F)c(F)c2)CCOc2cccnc21"
readout = "pIC50"
experimental_result = 6.94

[[record]]
compound = "COC(=O)c1ccc(C(=O)N[C@]2(c3ccc(OC(F)(F)F)c(F)c3)CCOc3cccnc32)n1C"
readout = "pIC50"
experimental_result = 7.82

[[record]]
compound = "O=C(N[C@]1(c2ccc(-c3ccoc3)cc2)CCOc2cccnc21)c1ccc(F)cc1"
readout = "pIC50"
experimental_result = 7.15

[[record]]
compound = "Cn1nccc1C(=O)N[C@]1(c2ccc(OC(F)(F)F)cc2)CCOc2cccnc21"
readout = "pIC50"
experimental_result = 6.98

[[record]]
compound = "O=C(Nc1ccccc1C(=O)O)N[C@]1(c2ccc(OC(F)(F)F)c(F)c2)CCOc2cccnc21"
readout = "pIC50"
experimental_result = 7.41

[[record]]
compound = "O=C(N[C@]1(c2ccc(OC(F)(F)F)cc2)CCOc2cccnc21)c1cccs1"
readout = "pIC50"
experimental_result = 6.84

[[record]]
compound = "Cn1cnc(C(=O)N[C@]2(c3ccc(OC(F)(F)F)c(F)c3)CCOc3cccnc32)c1"
readout = "pIC50"
experimental_result = 6.52

[[record]]
compound = "Cc1nc(-c2cccc(C(=O)N[C@]3(c4ccc(OC(F)(F)F)cc4)CCOc4cccnc43)c2)no1 [Example 275, formate]"
readout = "pIC50"
experimental_result = 7.47

